# Test system: PC-3 prostate
# method: NCI-60 one-dose screen, 48 h (100 = growth as untreated, 0 = no growth, -100 = all killed)
# condition details: 10 µM unless noted
The panel holds about 83,000 compounds, 20% with a hit somewhere; the sample as a whole holds those more often.
Can you tell me growth for the items I'm about to list?
Answers are plain numbers, in %.

Example entries and their recorded answers appear below.
molecule	subject of test	growth [%]
CCN(CC)CCCC(C)Nc1cnc(C(=O)Nc2cccc3ccc(OC)nc23)cn1 (centres undefined)	PC-3 prostate	69.5
Fc1cc(-c2nnc3sc(-c4ccc(Cl)cc4)nn23)c(Cl)cc1Cl	PC-3 prostate	102
CCCCNCC(O)c1cc(-c2ccc(C(F)(F)F)cc2)nc(-c2ccc(C(F)(F)F)cc2)c1 (centres undefined)	PC-3 prostate	-81.1

Problem: PC-3 prostate / growth / Cc1n(Cc2ccc3ccccc3n2)cc[n+]1Cc1ccc2ccccc2n1 : value?
Result: 55.8
